Assay: Metabolic stability in rat liver microsomes at 4 uM
Format: ADME, Microsome
readoutName: half-life at 4 µM

>>> value("Nc1nnc(Sc2ncc([N+](=O)[O-])s2)s1")
"27 min"

* * *

Biological target: RAC-alpha serine/threonine-protein kinase (Homo sapiens)
Test: Inhibition of AKT1 at 100 uM
Examples of compounds with documented inhibition follow.
readoutName: inhibition (%)

>>> value("Nc1nnc(Sc2ncc([N+](=O)[O-])s2)s1")
11
>>> value("O=[N+]([O-])c1cnc(Sc2nnc(Sc3ncc([N+](=O)[O-])s3)s2)s1")
27
>>> value("O=[N+]([O-])c1ccc(-n2c(O)nnc2Sc2ncc([N+](=O)[O-])s2)cc1")
20
